Values compiled from paper PMC12864922.

target: TDP-43 (Homo sapiens, UniProt Q13148 1-414); test: RNA Bind-n-Seq with designed 260-mer pool; 25 mM Tris-HCl, 150 mM KCl, 3 mM MgCl2, BSA (printed 500 mg/mL), 20 units/mL SUPERase IN; pH not stated; 500 nM RNA pool, 1 h, 4 C; TDP-43 5, 50, 500 nM; high values mean tight binding; conditions: protein: recombinant; tags: SBP (GST cleaved off with PreScission; pGEX-GST-SBP)
Sequence (Q13148 whole entry): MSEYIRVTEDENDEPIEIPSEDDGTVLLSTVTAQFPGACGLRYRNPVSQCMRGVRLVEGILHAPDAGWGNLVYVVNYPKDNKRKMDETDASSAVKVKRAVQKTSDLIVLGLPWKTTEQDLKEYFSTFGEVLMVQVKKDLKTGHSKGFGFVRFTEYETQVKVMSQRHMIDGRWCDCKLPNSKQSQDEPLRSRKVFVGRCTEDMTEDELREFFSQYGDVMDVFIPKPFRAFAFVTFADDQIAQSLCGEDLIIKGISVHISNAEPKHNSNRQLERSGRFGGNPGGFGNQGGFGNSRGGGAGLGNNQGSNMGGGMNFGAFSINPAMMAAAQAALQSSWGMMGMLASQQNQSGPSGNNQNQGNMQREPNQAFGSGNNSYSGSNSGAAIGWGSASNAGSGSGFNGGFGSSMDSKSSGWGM
In all, about 9,900 sequences were measured (“r (bound/input frequency ratio)”: median about 0.7, highest 2% from about 6.5 on). The list comes from a sample in which the highest values are over-represented; it also holds close analogues and randomly drawn sequences.
measured endpoint: binding signal

binding signal measured on ENSMUSG00000031028.482|Tub (ssRNA) RNA: GGGAGUUCUACAGUCCGACGAUCGCUUCGAUAUCCGCAUGCUAGGCGACUGUCAAGGAAGUGUGUUGUCAGUUCACUGGAGGAGGAGCUGAGAUGUGCACCCUUUUAAAUGAACAUGGGGUGGUGAUGGUGCCUUAACAAUCUUGACACUAAGGUGAAGCAAGCAAGUAAGGUGUGUGCCUCUGGGAAGACAGGAGUCGGAAGCCAAGGUGUGUGGCAACAGUCUGGAAGAGAGCUUUUGGUAAUCAUACCGUCUUCAGUGACAAGGCAACAAUGCUGUAAAGUGGGUUUGUUUGGUUUUGUUCUCUUGCGGUCGCACUAGUGUGGAAUUCUCGGGUGUCAAGG = 6.54 R (bound/input frequency ratio)
